- tested target: Nitric oxide synthase, inducible (Mus musculus)
- Sequence (P29477 whole entry): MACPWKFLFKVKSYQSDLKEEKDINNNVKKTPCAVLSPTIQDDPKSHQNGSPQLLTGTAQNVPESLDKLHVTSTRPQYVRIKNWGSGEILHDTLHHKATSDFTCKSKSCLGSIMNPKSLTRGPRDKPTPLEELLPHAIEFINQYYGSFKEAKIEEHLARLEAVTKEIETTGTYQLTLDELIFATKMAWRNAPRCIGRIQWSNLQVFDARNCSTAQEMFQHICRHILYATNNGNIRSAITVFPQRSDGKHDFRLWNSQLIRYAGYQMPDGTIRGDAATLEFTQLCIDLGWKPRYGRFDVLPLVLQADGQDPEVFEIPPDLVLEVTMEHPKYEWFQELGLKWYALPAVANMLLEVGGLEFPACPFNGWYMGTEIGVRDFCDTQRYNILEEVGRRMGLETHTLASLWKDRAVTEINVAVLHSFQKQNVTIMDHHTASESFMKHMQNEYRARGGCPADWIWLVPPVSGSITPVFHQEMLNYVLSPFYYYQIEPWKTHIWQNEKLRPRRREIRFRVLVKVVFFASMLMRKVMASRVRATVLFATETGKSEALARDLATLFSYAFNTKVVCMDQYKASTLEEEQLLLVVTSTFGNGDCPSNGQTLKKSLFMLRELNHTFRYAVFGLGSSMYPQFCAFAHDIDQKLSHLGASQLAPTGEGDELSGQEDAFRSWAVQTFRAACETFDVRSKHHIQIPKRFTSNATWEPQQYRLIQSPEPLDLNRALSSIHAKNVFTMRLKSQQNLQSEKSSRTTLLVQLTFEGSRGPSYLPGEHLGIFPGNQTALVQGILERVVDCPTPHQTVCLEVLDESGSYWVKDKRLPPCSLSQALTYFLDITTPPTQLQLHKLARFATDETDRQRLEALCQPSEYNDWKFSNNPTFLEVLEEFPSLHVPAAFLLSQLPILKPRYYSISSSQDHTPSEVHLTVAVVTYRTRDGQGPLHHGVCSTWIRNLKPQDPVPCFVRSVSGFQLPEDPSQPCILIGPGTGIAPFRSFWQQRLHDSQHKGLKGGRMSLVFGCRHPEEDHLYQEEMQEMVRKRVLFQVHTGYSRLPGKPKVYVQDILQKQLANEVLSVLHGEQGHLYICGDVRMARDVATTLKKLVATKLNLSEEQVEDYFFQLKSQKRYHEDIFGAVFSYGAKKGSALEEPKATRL
- experimental details: Inhibition of iNOS in LPS-stimulated mouse RAW 264.7 cells preincubated for 1 hr followed by LPS-stimulation and measured after 6 hrs by fluorescence based assay
- condition parameters: read-out: IC50
test readout: IC50 (µM)

> print(dat)
                                   compound  readout.value
1  CCCc1nn(C)c2c(NC(C)C)nc(/C=C/c3ccccc3)nc12           8.46

(A) CCCc1nn(C)c2c(NC(C)C)nc(/C=C/c3cc(OC)c(OC)c(OC)c3)nc12
(B) COc1ccc2c(c1)c(CC(=O)O)c(C)n2C(=O)c1ccc(Cl)cc1 [INDOMETHACIN]
Ask | Between A and B , which one shows the larger IC50 value? Write down the label attached to your selection.
Reply | B

(1) CCCc1nn(C)c2c(NCC(C)C)nc(/C=C/c3ccccc3)nc12
(2) CCCc1nn(C)c2c(NCCc3ccc(Cl)cc3)nc(/C=C/c3ccco3)nc12
(3) CCCc1nn(C)c2c(Nc3ccc(C(=O)O)cc3)nc(-c3cc(OC)c(OC)c(OC)c3)nc12
Ask | Sort the 3 compounds by IC50; largest first, smallest last. When ranking, write the labels in the order the request describes.
Reply | 3, 1, 2
(3: 10.2 µM, 1: 5.31 µM, 2: 2.6 µM)

(I) CCCc1nn(C)c2c(NC(C)C)nc(-c3cc(OC)c(OC)c(OC)c3)nc12
(II) CCCc1nn(C)c2c(NCc3ccc(Cl)cc3)nc(/C=C/c3ccco3)nc12
Ask | Between I and II , which one shows the larger IC50 value? Write down the label attached to your selection.
Reply | I
(I: 7.26 µM, II: 4.25 µM)

====

// IC50 lookup, one value per entry
- System: RAW264.7
- experimental details: Cytotoxicity against LPS-induced mouse RAW264.7 cells assessed as reduction in cell viability
- Assay type: cell-based

Some solved entries appear below for comparison.
> print(dat)
                                   compound  readout.value
1  COc1ccc2c(c1)c(CC(=O)O)c(C)n2C(=O)c1ccc(Cl)cc1 [INDOMETHACIN]        > 50 µM
2  CCCc1nn(C)c2c(NC(C)C)nc(/C=C/c3ccccc3)nc12        > 50 µM
3  CCCc1nn(C)c2c(NC(C)C)nc(-c3cc(OC)c(OC)c(OC)c3)nc12        > 50 µM
4  CCCc1nn(C)c2c(NCCc3ccc(Cl)cc3)nc(/C=C/c3ccco3)nc12        > 50 µM
5  CCCc1nn(C)c2c(N3CCC(O)CC3)nc(/C=C/c3cc(OC)c(OC)c(OC)c3)nc12        > 50 µM
6  CCCc1nn(C)c2c(NC(C)C)nc(/C=C/c3cc(OC)c(OC)c(OC)c3)nc12        > 50 µM

Ask | Data request, read-out IC50, for CCCc1nn(C)c2c(Nc3ccc(C(=O)O)cc3)nc(-c3cc(OC)c(OC)c(OC)c3)nc12
Reply | > 50 µM
